# testDescription: Tissue (brain/lung) exposure, IP administration
# Format: in vivo, mouse
# studyConditions: mouse, lung, ip, 10 mg/kg, 4.0 h, individual mice, read-out: Total Lung Parenchyma Concentration, individual
quantityKind: concentration at 4 h (nM)
Report as a plain number; the unit nM is understood.

Entry "NC(=O)C1CCN(c2ncccc2CNCc2cccc3[nH]ccc23)CC1" , concentration at 4 h reported as 356

----------
# testDescription: Mouse pharmacokinetics, IV administration
# Type: in vivo
# studyConditions: mouse, blood; IV 3 mg/kg; extrapolation to infinity, approximation only; read-out: Blood VSS
quantityKind: Vd (L/kg)
Kindly provide the numeric value in L/kg only, without the unit symbol.

Lookup result for "NC(=O)C1CCN(c2ncccc2CNCc2cccc3[nH]ccc23)CC1" ; measured Vd: 16.6

----------
# testDescription: Mouse pharmacokinetics, IV administration
# Type: in vivo
# studyConditions: mouse, blood; IV 3 mg/kg; extrapolation to infinity, approximation only; read-out: Blood CL
quantityKind: clearance (mL/min/kg)
The answer is to be given in mL/min/kg; state only the numeric part.

Recorded clearance (molecule NC(=O)C1CCN(c2ncccc2CNCc2cccc3[nH]ccc23)CC1 [Compound 22] ): 60.6

----------
# testDescription: Mouse pharmacokinetics, IP administration
# Assay type: in vivo
# studyConditions: mouse, plasma; IP 10 mg/kg, male C57BL/6 mice
quantityKind: Cmax (µM)
Please give a number only; it is taken to be in µM.

Memo: NC(=O)C1CCN(c2ncccc2CNCc2cccc3[nH]ccc23)CC1 [Compound 22] , reported Cmax: 4.25

----------
# testDescription: Tissue (brain/lung) exposure, IP administration
# Assay type: in vivo, mouse
# studyConditions: mouse, brain, ip, 10 mg/kg, 0.5 h, individual mice, read-out: Total Brain Parenchyma Concentration, individual
quantityKind: concentration at 0.5 h (nM)
Quick note: give the figure in nM, leave out the unit.

get_value(item= "NC(=O)C1CCN(c2ncccc2CNCc2cccc3[nH]ccc23)CC1" , readout=concentration at 0.5 h) returns 337

----------
# testDescription: Tissue (brain/lung) exposure, IP administration
# Format: in vivo, mouse
# studyConditions: 4.0 h, IP 10 mg/kg, individual mice; 10 mg/kg, 240 min; read-out: Total Lung Parenchyma Concentration, individual
quantityKind: concentration (nM)
API: value field is a number in nM; no unit string.

Given item "NC(=O)C1CCN(c2ncccc2CNCc2cccc3[nH]ccc23)CC1" , the value recorded as its concentration is 416

----------
# testDescription: Tissue (brain/lung) exposure, IP administration
# Format: in vivo, mouse
# studyConditions: mouse, brain, ip, 10 mg/kg, 4.0 h, mean, read-out: B:P ratio (brain:plasma), mean
quantityKind: Kp at 4 h
# respond with the number and nothing more

Record "NC(=O)C1CCN(c2ncccc2CNCc2cccc3[nH]ccc23)CC1" . Reported Kp at 4 h: 8.9

----------
# testDescription: Tissue (brain/lung) exposure, IP administration
# Assay type: in vivo, mouse
# studyConditions: mouse, brain, ip, 10 mg/kg, 4.0 h, individual mice, read-out: B:P ratio (brain:plasma), individual
quantityKind: Kp at 4 h
API doc: respond with a numeric literal and nothing else, no unit.

Summary for this molecule, NC(=O)C1CCN(c2ncccc2CNCc2cccc3[nH]ccc23)CC1 [Compound 22] : Kp at 4 h is 7.9

----------
# testDescription: Tissue (brain/lung) exposure, IP administration
# Assay type: in vivo, mouse
# studyConditions: 0.5 h, IP 10 mg/kg, individual mice; 10 mg/kg, 30 min; read-out: Total Brain Parenchyma Concentration, individual
# Method: For the tissue collection, at 0.5, 4 and 24 h following IP administration, mice were anaesthetised (using gaseous isoflurane). […] The concentration of compound 22 in brain or lung parenchyma was calculated on the basis of the measured concentration in brain or lung homogenate, after correcting for the contribution of compound contained within the vascular space of brain or lung samples as follows: […]
quantityKind: concentration (nM)
Note: unit nM is implicit; provide only the numeric part.

Notebook: "NC(=O)C1CCN(c2ncccc2CNCc2cccc3[nH]ccc23)CC1" , concentration read as 291
